experimental_system: KalbSec14 (Rattus norvegicus, UniProt P97924, N62Y/T46S)
Construct: His6 (TEV-cleavable) (N, cleaved yes); made in house; host or cells: E. coli BL21(DE3)
test_protocol: Liposome flotation binding assay (Accudenz gradient, Western blot)
assay_setup: Golgi-mixture liposomes with 8% test lipid; result in words
readout_kind: binding of Kal^bSec14 to liposomes containing the lipid

Report measured binding of Kal^bSec14 to liposomes containing the lipid; entry is CCCCCCCCCCCCC(=O)OC[C@@H](O)COP(=O)(O)OC[C@H](N)C(=O)O [LPS13:0] fail to interact

Report measured binding of Kal^bSec14 to liposomes containing the lipid; entry is CCCCCCCCCCCCC(=O)OC[C@@H](O)COP(=O)(O)OC1C(O)C(O)C(O)C(O)C1O (stereo partly shown) [LPI13:0] fail to interact

Report measured binding of Kal^bSec14 to liposomes containing the lipid; entry is CCCCCCCCCCCCCC(=O)OC[C@@H](O)COP(=O)(O)OCC(O)CO (mixture of isomers) [LPG14:0] fail to interact

----------
experimental_system: KalbSec14 (Rattus norvegicus, UniProt P97924, N62Y/T46S)
Construct: His6 (TEV-cleavable) (N, cleaved yes); made in house; host or cells: E. coli BL21(DE3)
test_protocol: Liposome flotation binding assay (Accudenz gradient, Western blot)
assay_setup: mean of independent experiments; normalized to total protein recovered; test lipid 8% of liposome lipid
Give Fraction 3 protein content, densitometry, Ave. for every item shown.
Reply: number alone, nothing else.

Report measured Fraction 3 protein content, densitometry, Ave.; entry is CCCCCCCCCCCCCC(=O)OC[C@@H](O)COP(=O)(O)OCC(O)CO (mixture of isomers) 0.0849

Report measured Fraction 3 protein content, densitometry, Ave.; entry is "CCCCCCCCCCCCC(=O)OC[C@@H](O)COP(=O)(O)OC[C@H](N)C(=O)O" 0.09

Report measured Fraction 3 protein content, densitometry, Ave.; entry is "CCCCCCCCCCCCCC(=O)OC[C@H](COP(=O)([O-])OCC[N+](C)(C)C)OC(=O)CCCCCCCCCCCCC" 0.11

Report measured Fraction 3 protein content, densitometry, Ave.; entry is CCCCCCCCCCCCC(=O)OC[C@@H](O)COP(=O)(O)OC1C(O)C(O)C(O)C(O)C1O (stereo partly shown) 0.18

----------
experimental_system: KalbSec14 (Rattus norvegicus, UniProt P97924, N62Y/T46S)
Construct: His6 (TEV-cleavable) (N, cleaved yes); made in house; host or cells: E. coli BL21(DE3)
test_protocol: Liposome flotation binding assay (Accudenz gradient, Western blot)
assay_setup: mean of independent experiments; normalized to total protein recovered; test lipid 8% of liposome lipid
Experimental: Unilamellar liposomes formed by mixing synthetic dioleoyl phospholipids and cholesterol in proportions mimicking the membranes of the trans-Golgi network (Golgi-mixture) were incubated with Kal^bSec14. […] Protein levels in each fraction were analyzed by Western blotting with an antibody to the Sec14 domain of Kalirin. […]
Give Fraction 4 protein content (bottom fraction, unbound), densitometry, Ave. for every item shown.
Reply: number alone, nothing else.

Report measured Fraction 4 protein content (bottom fraction, unbound), densitometry, Ave.; entry is CCCCCCCCCCCCC(=O)OC[C@@H](O)COP(=O)(O)OC1C(O)C(O)C(O)C(O)C1O (stereo partly shown) 0.79

Report measured Fraction 4 protein content (bottom fraction, unbound), densitometry, Ave.; entry is CCCCCCCCCCCCCC(=O)OC[C@@H](O)COP(=O)(O)OCC(O)CO (mixture of isomers) 0.86

Report measured Fraction 4 protein content (bottom fraction, unbound), densitometry, Ave.; entry is "CCCCCCCCCCCCCC(=O)OC[C@H](COP(=O)([O-])OCC[N+](C)(C)C)OC(=O)CCCCCCCCCCCCC" 0.85

Report measured Fraction 4 protein content (bottom fraction, unbound), densitometry, Ave.; entry is "CCCCCCCCCCCCC(=O)OC[C@@H](O)COP(=O)(O)OC[C@H](N)C(=O)O" 0.88
